- testedOn: CDK9/cyclin T1 (Homo sapiens)
- Sequence (O60563 whole entry): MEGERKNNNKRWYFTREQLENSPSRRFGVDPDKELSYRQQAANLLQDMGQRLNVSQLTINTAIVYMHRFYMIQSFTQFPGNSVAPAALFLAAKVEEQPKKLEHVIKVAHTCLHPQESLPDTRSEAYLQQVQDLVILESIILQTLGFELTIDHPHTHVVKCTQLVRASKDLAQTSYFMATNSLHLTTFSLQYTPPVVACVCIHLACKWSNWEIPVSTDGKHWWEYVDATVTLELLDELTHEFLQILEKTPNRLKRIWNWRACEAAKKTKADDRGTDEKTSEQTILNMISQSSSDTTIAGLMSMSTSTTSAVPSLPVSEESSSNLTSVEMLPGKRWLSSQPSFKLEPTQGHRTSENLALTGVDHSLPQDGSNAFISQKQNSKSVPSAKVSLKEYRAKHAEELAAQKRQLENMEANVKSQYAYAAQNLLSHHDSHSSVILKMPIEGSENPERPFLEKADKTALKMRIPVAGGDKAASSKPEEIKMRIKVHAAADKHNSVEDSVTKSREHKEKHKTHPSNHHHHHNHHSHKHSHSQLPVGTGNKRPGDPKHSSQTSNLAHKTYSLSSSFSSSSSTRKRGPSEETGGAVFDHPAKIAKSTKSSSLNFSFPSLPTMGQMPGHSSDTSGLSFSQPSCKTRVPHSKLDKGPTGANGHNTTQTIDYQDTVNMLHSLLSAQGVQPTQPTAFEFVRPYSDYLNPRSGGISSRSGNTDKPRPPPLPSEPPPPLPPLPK
- Sequence (P50750 whole entry): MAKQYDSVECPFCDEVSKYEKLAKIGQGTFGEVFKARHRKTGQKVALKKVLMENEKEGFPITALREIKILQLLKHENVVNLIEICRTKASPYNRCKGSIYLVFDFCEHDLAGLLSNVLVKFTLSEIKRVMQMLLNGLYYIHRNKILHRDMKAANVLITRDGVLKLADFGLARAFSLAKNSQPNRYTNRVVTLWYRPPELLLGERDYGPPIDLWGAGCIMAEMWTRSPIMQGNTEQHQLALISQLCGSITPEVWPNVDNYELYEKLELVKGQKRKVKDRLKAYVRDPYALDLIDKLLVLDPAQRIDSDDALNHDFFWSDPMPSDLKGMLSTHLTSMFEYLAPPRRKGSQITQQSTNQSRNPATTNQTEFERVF
- assaySummary: Inhibition of CDK9/CycT1 (unknown origin) using TAMRA-Rbtide and ATP as substrate after 1 hr
- Format: protein-complex assay
molecules and their reported IC50
readoutLabel: IC50 (nM)

INSERT INTO measurements (molecule, testedon, op, value) VALUES
  ('CCCOc1ccccc1-c1cc(Nc2cccc(CP(=O)(CCC)OCC)c2)ncn1 (stereo not given)', 'CDK9/cyclin T1 (Homo sapiens)', '=', 248),
  ('CCCP(=O)(OCC)c1ccc(Nc2cc(-c3cccc([N+](=O)[O-])c3)ncn2)cc1 (stereo not given)', 'CDK9/cyclin T1 (Homo sapiens)', '>', 10000),
  ('Nc1cccc(-c2cc(Nc3ccc(CP(=O)(O)O)cc3)ncn2)c1', 'CDK9/cyclin T1 (Homo sapiens)', '=', 1130),
  ('CCOP(=O)(CC)c1cccc(Nc2cc(-c3cccc([N+](=O)[O-])c3)ncn2)c1 (stereo not given)', 'CDK9/cyclin T1 (Homo sapiens)', '>', 10000),
  ('CCCP(=O)(Cc1cccc(Nc2cc(-c3ccccc3Oc3ccccc3)ncn2)c1)OCC (stereo not given)', 'CDK9/cyclin T1 (Homo sapiens)', '=', 601);
